I'd appreciate it if you could supply log10 of IC50 values for the items below.
biological target: Epidermal growth factor receptor (Homo sapiens, UniProt P00533, L858M/T790M); test: Inhibition of EGFR T790M/[…] double mutant (unknown origin) expressed in baculovirus expression system using poly (Glu, Tyr) 4:1 as substrate after 60 mins by ELISA
Sequence (P00533 25-1210 T790M/L858M limits assumed): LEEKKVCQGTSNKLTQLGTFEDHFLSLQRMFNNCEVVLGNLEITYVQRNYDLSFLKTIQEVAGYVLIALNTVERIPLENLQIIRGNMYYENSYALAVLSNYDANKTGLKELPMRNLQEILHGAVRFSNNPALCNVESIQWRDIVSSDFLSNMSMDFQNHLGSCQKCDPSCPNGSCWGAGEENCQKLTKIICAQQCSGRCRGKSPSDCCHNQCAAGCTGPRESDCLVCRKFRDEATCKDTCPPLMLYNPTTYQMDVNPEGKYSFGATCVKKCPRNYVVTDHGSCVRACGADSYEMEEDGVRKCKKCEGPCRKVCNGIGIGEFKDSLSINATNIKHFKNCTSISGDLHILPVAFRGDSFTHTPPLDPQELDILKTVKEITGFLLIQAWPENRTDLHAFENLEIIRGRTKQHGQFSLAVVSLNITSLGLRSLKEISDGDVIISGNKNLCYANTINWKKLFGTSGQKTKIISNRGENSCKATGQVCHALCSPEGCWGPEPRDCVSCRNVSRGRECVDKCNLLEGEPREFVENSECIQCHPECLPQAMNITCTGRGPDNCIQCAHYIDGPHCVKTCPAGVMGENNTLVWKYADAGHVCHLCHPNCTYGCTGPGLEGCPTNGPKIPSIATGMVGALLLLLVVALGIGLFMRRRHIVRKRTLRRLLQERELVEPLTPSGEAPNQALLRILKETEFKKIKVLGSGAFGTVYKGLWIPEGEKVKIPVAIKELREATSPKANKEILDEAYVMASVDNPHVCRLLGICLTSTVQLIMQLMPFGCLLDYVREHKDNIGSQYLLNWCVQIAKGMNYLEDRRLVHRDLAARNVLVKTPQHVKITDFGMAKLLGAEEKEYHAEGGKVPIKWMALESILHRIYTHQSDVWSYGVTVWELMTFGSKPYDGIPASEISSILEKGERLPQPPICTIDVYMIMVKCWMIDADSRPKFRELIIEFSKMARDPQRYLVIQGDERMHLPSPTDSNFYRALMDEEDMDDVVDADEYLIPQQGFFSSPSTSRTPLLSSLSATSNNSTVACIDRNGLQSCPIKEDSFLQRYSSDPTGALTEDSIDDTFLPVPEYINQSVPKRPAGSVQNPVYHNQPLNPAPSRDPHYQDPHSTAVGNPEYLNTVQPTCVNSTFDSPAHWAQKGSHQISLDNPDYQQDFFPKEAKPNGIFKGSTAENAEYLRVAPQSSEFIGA
Lab note - IC50 converted to log10 from values in µM.

Illustrative cases are given below, each with its answer.
• C#CCNC(=O)Nc1cc2c(Nc3ccc(F)c(Cl)c3)ncnc2cc1O[C@H]1CCOC1 = -0.43
• O=C(Nc1cc2c(Nc3ccc(F)c(Cl)c3)ncnc2cc1O[C@H]1CCOC1)N1CCC(F)CC1 = 0.26

// each listed compound needs a value for log10 of IC50
1. O=C(NCCN1CCOCC1)Nc1cc2c(Nc3ccc(F)c(Cl)c3)ncnc2cc1O[C@H]1CCOC1
2. O=C(Nc1cc2c(Nc3ccc(F)c(Cl)c3)ncnc2cc1O[C@H]1CCOC1)N1CCC(F)(F)C1
3. COCCNC(=O)Nc1cc2c(Nc3ccc(F)c(Cl)c3)ncnc2cc1O[C@H]1CCOC1
4. O=C(NCCN1CCCCC1)Nc1cc2c(Nc3ccc(F)c(Cl)c3)ncnc2cc1O[C@H]1CCOC1
5. O=C(Nc1cc2c(Nc3ccc(F)c(Cl)c3)ncnc2cc1O[C@H]1CCOC1)N1CCC(N2CCCC2)CC1
6. CCN(CC)CCN(C)C(=O)Nc1cc2c(Nc3ccc(F)c(Cl)c3)ncnc2cc1O[C@H]1CCOC1
7. CN(C)CCNC(=O)Nc1cc2c(Nc3ccc(F)c(Cl)c3)ncnc2cc1O[C@H]1CCOC1

[-1.31, 0.49, 0.55, -0.35, 0.20, -0.41, 0.32]

// each listed compound needs a value for log10 of IC50
1. COC(=O)/C=C/CNC(=O)Nc1cc2c(Nc3ccc(F)c(Cl)c3)ncnc2cc1O[C@H]1CCOC1
2. O=C(Nc1cc2c(Nc3ccc(F)c(Cl)c3)ncnc2cc1O[C@H]1CCOC1)N1CCC(F)(F)CC1
3. CCN(CC)CCNC(=O)Nc1cc2c(Nc3ccc(F)c(Cl)c3)ncnc2cc1O[C@H]1CCOC1
4. O=C(NCCN1CCCC1)Nc1cc2c(Nc3ccc(F)c(Cl)c3)ncnc2cc1O[C@H]1CCOC1
5. COCCCNC(=O)Nc1cc2c(Nc3ccc(F)c(Cl)c3)ncnc2cc1O[C@H]1CCOC1

-0.58
0.73
0.35
-1.21
0.22

// each listed compound needs a value for log10 of IC50
1. CS(=O)(=O)CCNC(=O)Nc1cc2c(Nc3ccc(F)c(Cl)c3)ncnc2cc1O[C@H]1CCOC1
2. CN1CCN(C(=O)Nc2cc3c(Nc4ccc(F)c(Cl)c4)ncnc3cc2O[C@H]2CCOC2)CC1

-0.17
0.75

// each listed compound needs a value for log10 of IC50
1. O=C(Nc1cc2c(Nc3ccc(F)c(Cl)c3)ncnc2cc1O[C@H]1CCOC1)N1CC(O)C1
2. O=C(Nc1cc2c(Nc3ccc(F)c(Cl)c3)ncnc2cc1O[C@H]1CCOC1)N1CCC2(CC1)OCCO2

0.15
0.72

----------
biological target: Tyrosine-protein kinase ABL1 (Homo sapiens); assay: Inhibition of recombinant ABL (unknown origin) using poly (Glu, Tyr) 4:1 as substrate after 60 mins by ELISA
Sequence (P00519 whole entry): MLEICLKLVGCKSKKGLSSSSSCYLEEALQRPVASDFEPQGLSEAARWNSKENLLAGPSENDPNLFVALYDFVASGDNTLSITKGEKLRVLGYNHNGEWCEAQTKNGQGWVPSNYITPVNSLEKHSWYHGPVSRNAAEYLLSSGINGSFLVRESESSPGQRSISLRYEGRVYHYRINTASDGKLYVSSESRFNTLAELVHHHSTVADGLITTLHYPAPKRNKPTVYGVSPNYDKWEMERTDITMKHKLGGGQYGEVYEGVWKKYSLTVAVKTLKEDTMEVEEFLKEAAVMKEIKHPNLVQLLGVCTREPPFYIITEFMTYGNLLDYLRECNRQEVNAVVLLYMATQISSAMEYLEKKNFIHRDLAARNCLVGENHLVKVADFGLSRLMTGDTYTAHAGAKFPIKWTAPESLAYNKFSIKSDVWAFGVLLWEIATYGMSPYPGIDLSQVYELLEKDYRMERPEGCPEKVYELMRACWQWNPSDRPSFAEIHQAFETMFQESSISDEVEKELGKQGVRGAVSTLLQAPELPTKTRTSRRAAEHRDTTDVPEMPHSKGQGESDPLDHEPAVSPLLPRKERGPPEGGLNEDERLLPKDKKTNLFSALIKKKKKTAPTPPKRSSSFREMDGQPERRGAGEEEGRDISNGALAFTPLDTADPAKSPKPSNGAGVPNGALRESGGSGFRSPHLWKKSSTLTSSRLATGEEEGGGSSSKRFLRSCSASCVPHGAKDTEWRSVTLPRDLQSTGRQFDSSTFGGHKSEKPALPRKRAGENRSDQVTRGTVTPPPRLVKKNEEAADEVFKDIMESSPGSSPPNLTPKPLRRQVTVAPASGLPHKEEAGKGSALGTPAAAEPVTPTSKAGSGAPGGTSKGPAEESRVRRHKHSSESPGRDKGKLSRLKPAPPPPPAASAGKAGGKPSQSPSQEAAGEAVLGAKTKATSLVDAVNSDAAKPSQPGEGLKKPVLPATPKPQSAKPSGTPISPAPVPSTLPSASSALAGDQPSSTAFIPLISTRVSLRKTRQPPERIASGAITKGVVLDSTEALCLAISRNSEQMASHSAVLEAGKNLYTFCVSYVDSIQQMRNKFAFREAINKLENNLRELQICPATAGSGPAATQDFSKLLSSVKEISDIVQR
metric name: IC50 (µM)
Give bare numbers, in µM.

What measured IC50 goes with CCN(CC)CCCNC(=O)Nc1cc2c(Nc3ccc(F)c(Cl)c3)ncnc2cc1O[C@H]1CCOC1 ?
0.566

----------
target: Ephrin type-A receptor 2 (Homo sapiens); assay: Inhibition of recombinant EPHA2 (unknown origin) using poly (Glu, Tyr) 4:1 as substrate after 60 mins by ELISA
metric name: IC50

• CCN(CC)CCCNC(=O)Nc1cc2c(Nc3ccc(F)c(Cl)c3)ncnc2cc1O[C@H]1CCOC1 = > 10 µM

Form field: IC50 recorded for O=C(NCCN1CCCC1)Nc1cc2c(Nc3ccc(F)c(Cl)c3)ncnc2cc1O[C@H]1CCOC1 with Ephrin type-A receptor 2 (Homo sapiens) (enter value)
> 10 µM

----------
I'd appreciate it if you could supply pIC50 values for the items below.
biological target: Epidermal growth factor receptor (Homo sapiens, UniProt P00533, L858M/T790M); experiment: Inhibition of EGFR T790M/[…] double mutant (unknown origin) expressed in baculovirus expression system using poly (Glu, Tyr) 4:1 as substrate after 60 mins by ELISA
Answers are plain numbers, as −log10 of the molar value.

- O=C(Nc1cc2c(Nc3ccc(F)c(Cl)c3)ncnc2cc1O[C@H]1CCOC1)N1CCCC(F)(F)C1: 5.72

// each listed compound needs a value for pIC50
1. CCN(CC)CCCNC(=O)Nc1cc2c(Nc3ccc(F)c(Cl)c3)ncnc2cc1O[C@H]1CCOC1
2. CN(C)CCCN(C)C(=O)Nc1cc2c(Nc3ccc(F)c(Cl)c3)ncnc2cc1O[C@H]1CCOC1
3. O=C(Nc1cc2c(Nc3ccc(F)c(Cl)c3)ncnc2cc1O[C@H]1CCOC1)N1CC(F)C1

[5.51, 5.28, 5.66]

What measured pIC50 goes with CN(C)CCN(C)C(=O)Nc1cc2c(Nc3ccc(F)c(Cl)c3)ncnc2cc1O[C@H]1CCOC1 ?
6.17

----------
target: Proto-oncogene tyrosine-protein kinase receptor Ret (Homo sapiens, UniProt P07949); assay: Inhibition of recombinant RET (unknown origin) using poly (Glu, Tyr) 4:1 as substrate after 60 mins by ELISA
metric name: IC50

- CCN(CC)CCCNC(=O)Nc1cc2c(Nc3ccc(F)c(Cl)c3)ncnc2cc1O[C@H]1CCOC1: 347 nM

Next compound, IC50 to be filled in.
What measured IC50 goes with O=C(NCCN1CCCC1)Nc1cc2c(Nc3ccc(F)c(Cl)c3)ncnc2cc1O[C@H]1CCOC1 ?
223 nM

----------
system: A-431; test: Antiproliferative activity against human A431 cells after 72 hrs by SRB assay; format: functional, cell-based; details: A-431, 72 h
metric name: pIC50
One number for each entry, as −log10 of the molar value.

• O=C(Nc1cc2c(Nc3ccc(F)c(Cl)c3)ncnc2cc1O[C@H]1CCOC1)N1CCC(N2CCCC2)CC1 = 6.50
• CN(C)CCN(C)C(=O)Nc1cc2c(Nc3ccc(F)c(Cl)c3)ncnc2cc1O[C@H]1CCOC1 = 6.35
• O=C(NCCN1CCCCC1)Nc1cc2c(Nc3ccc(F)c(Cl)c3)ncnc2cc1O[C@H]1CCOC1 = 6.94
• C#CCNC(=O)Nc1cc2c(Nc3ccc(F)c(Cl)c3)ncnc2cc1O[C@H]1CCOC1 = 5.43
• CCN(CC)CCCNC(=O)Nc1cc2c(Nc3ccc(F)c(Cl)c3)ncnc2cc1O[C@H]1CCOC1 = 6.71

// each listed compound needs a value for pIC50
1. COC(=O)/C=C/CNC(=O)Nc1cc2c(Nc3ccc(F)c(Cl)c3)ncnc2cc1O[C@H]1CCOC1
2. O=C(NCCN1CCOCC1)Nc1cc2c(Nc3ccc(F)c(Cl)c3)ncnc2cc1O[C@H]1CCOC1

1: 5.85; 2: 6.51

// each listed compound needs a value for pIC50
1. O=C(Nc1cc2c(Nc3ccc(F)c(Cl)c3)ncnc2cc1O[C@H]1CCOC1)N1CCC(CCO)CC1
2. CCN(CC)CCNC(=O)Nc1cc2c(Nc3ccc(F)c(Cl)c3)ncnc2cc1O[C@H]1CCOC1

1: 6.12; 2: 6.60

----------
I'd appreciate it if you could supply IC50 values for the items below.
molecular target: Fibroblast growth factor receptor 1 (Homo sapiens, UniProt P11362)
Sequence (P11362 whole entry): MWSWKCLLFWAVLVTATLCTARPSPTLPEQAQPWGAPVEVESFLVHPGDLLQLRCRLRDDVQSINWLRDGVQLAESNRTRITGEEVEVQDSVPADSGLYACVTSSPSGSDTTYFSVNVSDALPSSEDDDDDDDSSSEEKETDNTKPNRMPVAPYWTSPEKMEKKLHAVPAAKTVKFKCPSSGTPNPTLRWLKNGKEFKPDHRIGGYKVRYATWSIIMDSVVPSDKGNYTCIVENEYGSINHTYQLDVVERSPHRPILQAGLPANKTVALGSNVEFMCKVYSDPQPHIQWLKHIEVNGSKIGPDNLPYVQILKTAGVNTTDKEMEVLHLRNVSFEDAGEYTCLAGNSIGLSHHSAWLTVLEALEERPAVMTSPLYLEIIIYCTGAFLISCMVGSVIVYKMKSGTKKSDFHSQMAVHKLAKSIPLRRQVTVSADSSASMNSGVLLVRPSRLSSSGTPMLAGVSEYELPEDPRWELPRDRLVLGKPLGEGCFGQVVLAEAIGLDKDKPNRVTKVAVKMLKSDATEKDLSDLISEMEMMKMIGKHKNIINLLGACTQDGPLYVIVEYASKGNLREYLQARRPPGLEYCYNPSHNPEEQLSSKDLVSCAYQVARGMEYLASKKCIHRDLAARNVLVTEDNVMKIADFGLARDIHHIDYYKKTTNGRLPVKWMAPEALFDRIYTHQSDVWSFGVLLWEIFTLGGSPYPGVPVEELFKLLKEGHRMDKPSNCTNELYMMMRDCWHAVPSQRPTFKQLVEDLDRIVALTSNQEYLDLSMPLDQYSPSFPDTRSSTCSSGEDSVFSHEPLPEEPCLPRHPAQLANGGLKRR

• CCN(CC)CCCNC(=O)Nc1cc2c(Nc3ccc(F)c(Cl)c3)ncnc2cc1O[C@H]1CCOC1 = > 10 µM

What measured IC50 goes with O=C(NCCN1CCCC1)Nc1cc2c(Nc3ccc(F)c(Cl)c3)ncnc2cc1O[C@H]1CCOC1 ?
> 10 µM

----------
target: Receptor tyrosine-protein kinase erbB-4 (Homo sapiens); assay: Inhibition of recombinant ErbB4 (unknown origin) using poly (Glu, Tyr) 4:1 as substrate after 60 mins by ELISA
Sequence (Q15303 whole entry): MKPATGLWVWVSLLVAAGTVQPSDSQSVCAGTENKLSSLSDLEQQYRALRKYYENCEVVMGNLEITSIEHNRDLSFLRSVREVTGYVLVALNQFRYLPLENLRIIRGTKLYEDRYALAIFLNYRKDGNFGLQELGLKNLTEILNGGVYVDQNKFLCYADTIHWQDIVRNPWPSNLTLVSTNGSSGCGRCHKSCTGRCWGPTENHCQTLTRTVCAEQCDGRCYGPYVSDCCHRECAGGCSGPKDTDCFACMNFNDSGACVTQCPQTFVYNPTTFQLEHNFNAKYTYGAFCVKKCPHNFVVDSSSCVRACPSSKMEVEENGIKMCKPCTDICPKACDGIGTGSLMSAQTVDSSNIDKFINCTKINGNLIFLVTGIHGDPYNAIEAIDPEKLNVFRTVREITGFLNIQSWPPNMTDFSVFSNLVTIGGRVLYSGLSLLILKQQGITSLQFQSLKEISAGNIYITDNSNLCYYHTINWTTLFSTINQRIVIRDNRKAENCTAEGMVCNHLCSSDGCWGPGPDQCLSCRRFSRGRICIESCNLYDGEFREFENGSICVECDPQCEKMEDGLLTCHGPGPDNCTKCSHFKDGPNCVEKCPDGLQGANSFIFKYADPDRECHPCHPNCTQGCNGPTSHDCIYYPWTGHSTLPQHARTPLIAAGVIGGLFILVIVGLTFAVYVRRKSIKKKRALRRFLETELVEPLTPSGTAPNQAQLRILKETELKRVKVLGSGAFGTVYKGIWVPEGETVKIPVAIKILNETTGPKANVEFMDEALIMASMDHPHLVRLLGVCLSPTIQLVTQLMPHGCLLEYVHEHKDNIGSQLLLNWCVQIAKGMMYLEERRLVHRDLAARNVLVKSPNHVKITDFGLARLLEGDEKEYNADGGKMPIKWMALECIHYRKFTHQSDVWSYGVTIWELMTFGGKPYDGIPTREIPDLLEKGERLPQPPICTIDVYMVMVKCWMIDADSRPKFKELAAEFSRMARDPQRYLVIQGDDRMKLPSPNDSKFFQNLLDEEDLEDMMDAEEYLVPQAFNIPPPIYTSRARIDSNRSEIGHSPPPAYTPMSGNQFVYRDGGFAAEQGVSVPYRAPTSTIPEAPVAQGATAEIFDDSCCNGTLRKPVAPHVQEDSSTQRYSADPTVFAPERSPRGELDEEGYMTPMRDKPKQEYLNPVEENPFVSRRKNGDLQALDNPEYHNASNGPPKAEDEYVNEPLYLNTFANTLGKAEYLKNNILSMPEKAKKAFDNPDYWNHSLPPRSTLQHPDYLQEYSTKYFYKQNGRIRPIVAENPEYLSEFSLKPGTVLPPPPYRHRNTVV
metric name: pIC50
One number for each entry, as −log10 of the molar value.

* O=C(NCCN1CCCC1)Nc1cc2c(Nc3ccc(F)c(Cl)c3)ncnc2cc1O[C@H]1CCOC1 | 7.92

What measured pIC50 goes with CCN(CC)CCCNC(=O)Nc1cc2c(Nc3ccc(F)c(Cl)c3)ncnc2cc1O[C@H]1CCOC1 ?
8.10

----------
Recorded below: pIC50, system Receptor tyrosine-protein kinase erbB-2 (Homo sapiens).
Numbers only, as −log10 of the molar value.

* CCN(CC)CCCNC(=O)Nc1cc2c(Nc3ccc(F)c(Cl)c3)ncnc2cc1O[C@H]1CCOC1 | 7.11

Next compound, pIC50 to be filled in.
What measured pIC50 goes with O=C(NCCN1CCCC1)Nc1cc2c(Nc3ccc(F)c(Cl)c3)ncnc2cc1O[C@H]1CCOC1 ?
6.95
